EXPERIMENTAL_SYSTEM: ERα (Homo sapiens, UniProt P03372)
Sequence (P03372 whole entry): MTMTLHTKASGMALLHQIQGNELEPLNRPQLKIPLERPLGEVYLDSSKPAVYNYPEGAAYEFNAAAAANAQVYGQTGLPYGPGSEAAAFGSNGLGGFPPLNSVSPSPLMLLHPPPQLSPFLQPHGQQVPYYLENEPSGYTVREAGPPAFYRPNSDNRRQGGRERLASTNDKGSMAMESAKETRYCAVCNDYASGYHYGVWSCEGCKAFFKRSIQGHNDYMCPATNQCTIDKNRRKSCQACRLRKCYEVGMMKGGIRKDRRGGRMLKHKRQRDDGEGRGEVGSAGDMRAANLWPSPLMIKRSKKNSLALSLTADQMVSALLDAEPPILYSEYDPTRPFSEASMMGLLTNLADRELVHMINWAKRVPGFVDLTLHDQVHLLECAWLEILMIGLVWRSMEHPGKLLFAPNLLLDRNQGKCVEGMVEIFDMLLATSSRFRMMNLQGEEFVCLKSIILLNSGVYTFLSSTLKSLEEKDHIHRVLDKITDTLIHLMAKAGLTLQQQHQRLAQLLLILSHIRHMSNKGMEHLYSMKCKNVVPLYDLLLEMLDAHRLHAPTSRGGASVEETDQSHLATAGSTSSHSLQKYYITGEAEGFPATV
EXPERIMENTAL_PROTOCOL: Estrogen receptor-alpha (ERα) degradation assay in MCF7 cells using In-Cell Western assay
Type: cell-based
Parameters: assessed for their activity in degrading ERα in MCF-7 cells via western blot; endogenous in cells; host or cells: MCF7 cells
CONDITIONS_USED: ER-alpha degradation in MCF7 cells, 5 days of incubation
Listing of recorded DC50 by entry.

O=C1CCC(N2Cc3cc(NCCCOCCCOCCCOc4ccc(Oc5c(-c6ccc(Br)cc6)sc6cc(O)ccc56)cc4)ccc3C2=O)C(=O)N1 (stereo not drawn) [Compound 94] ... 1 to 10 nM

Noted for COc1ccc2c(Oc3ccc(OCCN4CCN(CCCNc5ccc6c(c5)CN(C5CCC(=O)NC5=O)C6=O)CC4)cc3)c(-c3ccc(O)cc3)sc2c1 (stereo not drawn) [Compound 181] : its DC50 reads 1 to 10 nM

Noted for O=C1CCC(N2C(=O)c3ccc(N4CCN(C5CCN(CCOc6ccc(Oc7c(-c8ccc(Br)cc8)sc8cc(O)ccc78)cc6)CC5)CC4)cc3C2=O)C(=O)N1 (stereo not drawn) [Compound 183] : its DC50 reads 10 to 100 nM
